# procedure-details: LogD measurement at pH 7.4
# Assay type: physicochemical
Binary classification by LogD, with 4 as an inclusive lower bound for 1; all other cases are -1.

>  <molecule-smiles>
CC(C)c1cc(Cl)cc(Cl)c1C(=O)c1ccc(F)c(CC(=O)NCC2(O)CC2)c1

>  <assigned-class>
1

$$$$
>  <molecule-smiles>
O=C(Cc1cncc(-n2cc(Cl)c3cc(Cl)cc(Cl)c32)c1)NCCO

>  <assigned-class>
1

$$$$
>  <molecule-smiles>
O=C(Cc1cncc(-n2cc(Cl)c3cc(Cl)cc(Cl)c32)c1)N[C@@H]1COC[C@H]1O

>  <assigned-class>
-1

$$$$
>  <molecule-smiles>
CC(C)c1cc(Cl)cc(Cl)c1C(=O)c1ccc(F)c(CC(=O)NCC2(O)CCC2)c1

>  <assigned-class>
1

$$$$
>  <molecule-smiles>
COC[C@@H](CO)NC(=O)Cc1cc(Sc2c(Cl)cc(F)cc2C(C)C)ccc1F

>  <assigned-class>
1

$$$$
>  <molecule-smiles>
O=C(Cc1cncc(-n2cc(Cl)c3cc(Cl)cc(Cl)c32)c1)N[C@H]1COC[C@@H]1O

>  <assigned-class>
-1

$$$$

---

# procedure-details: Solubility assay (kinetic solubility)
# Format: physicochemical
# condition: HHBS buffer with 0.2% DMSO, aqueous with cosolvent or surfactant or cyclodextrin, kinetic from dmso stock; read-out: Kinetic Sol.
measured-property: solubility kinetic at 10 min (µM)

>  <compound>
CC(C)c1cc(Cl)cc(Cl)c1C(O)c1ccc(F)c(CC(=O)NCC2(O)CCC2)c1 (racemic)

>  <endpoint-result>
41

$$$$

---

# procedure-details: LogD measurement at pH 7.4
# Assay type: physicochemical
# condition: lipid phase / aqueous phase, read-out: LogD
measured-property: LogD

>  <compound>
CC(C)c1cc(Cl)cc(Cl)c1C(O)c1ccc(F)c(CC(=O)NCC2(O)CCC2)c1 (racemic) [Compound 533]

>  <endpoint-result>
4.36

$$$$

---

# procedure-details: Solubility assay (kinetic solubility)
# Format: physicochemical
# Set-up: unit not given here
Mark Condition met only when Kinetic Sol. stays strictly below 30. Values equal to the cut-off are Condition not met.

>  <molecule-smiles>
O=C(Cc1cncc(-n2cc(Cl)c3cc(Cl)cc(Cl)c32)c1)N[C@@H]1COC[C@H]1O

>  <assigned-class>
Condition not met

$$$$
>  <molecule-smiles>
CC(C)c1cc(Cl)cc(Cl)c1C(=O)c1ccc(F)c(CC(=O)NCC2(O)CCC2)c1

>  <assigned-class>
Condition met

$$$$
>  <molecule-smiles>
COC[C@@H](CO)NC(=O)Cc1cc(Sc2c(Cl)cc(F)cc2C(C)C)ccc1F

>  <assigned-class>
Condition met

$$$$
>  <molecule-smiles>
CC(C)c1cc(Cl)cc(Cl)c1C(=O)c1ccc(F)c(CC(=O)NCC(C)(C)O)c1

>  <assigned-class>
Condition not met

$$$$
>  <molecule-smiles>
O=C(Cc1cncc(-n2cc(Cl)c3cc(Cl)cc(Cl)c32)c1)N[C@H]1COC[C@@H]1O

>  <assigned-class>
Condition met

$$$$
>  <molecule-smiles>
CC(C)c1cc(Cl)cc(Cl)c1C(=O)c1ccc(F)c(CC(=O)NCC2(O)CC2)c1

>  <assigned-class>
Condition met

$$$$
>  <molecule-smiles>
O=C(Cc1cncc(-n2cc(Cl)c3cc(Cl)cc(Cl)c32)c1)NCCO

>  <assigned-class>
Condition met

$$$$

---

# assay-system: human Kv7.2/3 channels (Homo sapiens (Human), UniProt O43525+O43526)
# procedure-details: High content screen (HCS) FLIPR Potassium (thallium flux) assay, CHO/hKv7.2/3 cell line
# condition: head prints IC50; channel activation in CHO/hKv7.2/3, fluorescent HCS; read-out: Kv7.2/7.3 IC50

>  <compound>
CC(C)c1cc(Cl)cc(Cl)c1C(O)c1ccc(F)c(CC(=O)NCC2(O)CCC2)c1 (racemic) [Compound 533]

>  <IC50 [µM]>
1.5

$$$$

---

# procedure-details: Metabolic stability in human liver microsomes (HLM Clint)
# Format: in vitro ADME

>  <compound>
CC(C)c1cc(Cl)cc(Cl)c1C(O)c1ccc(F)c(CC(=O)NCC2(O)CCC2)c1 (racemic)

>  <microsomal CLint>
658 µL/min/mg

$$$$

---

# assay-system: UniProtKB Q12809
pIC50: −log10 of the molar value.

>  <compound>
CC(C)c1cc(Cl)cc(Cl)c1C(O)c1ccc(F)c(CC(=O)NCC2(O)CCC2)c1 (racemic)

>  <assay-system>
UniProtKB Q12809

>  <pIC50>
< 4.30

$$$$

---

# procedure-details: Metabolic stability in human liver microsomes (HLM Clint)
# Format: in vitro ADME
Output schema: class label derived from HLM Clint. Mapping: lower range (below 70 µL/min/mg), middle range (70 µL/min/mg to below 400 µL/min/mg), upper range (400 µL/min/mg or more)

>  <compound>
O=C(Cc1cncc(-n2cc(Cl)c3cc(Cl)cc(Cl)c32)c1)N[C@H]1COC[C@@H]1O

>  <assigned-class>
lower range

$$$$
>  <compound>
CC(C)c1cc(Cl)cc(Cl)c1C(O)c1ccc(F)c(CC(=O)NCC(C)(C)O)c1 (stereo not drawn)

>  <assigned-class>
middle range

$$$$
>  <compound>
COC[C@@H](CO)NC(=O)Cc1cc(Sc2c(Cl)cc(F)cc2C(C)C)ccc1F

>  <assigned-class>
upper range

$$$$
>  <compound>
COC[C@@H](CO)NC(=O)Cc1cc(Sc2c(Cl)cc(Cl)cc2C(C)C)ccc1F

>  <assigned-class>
upper range

$$$$
>  <compound>
CC(C)c1cc(Cl)cc(Cl)c1C(=O)c1ccc(F)c(CC(=O)NCC2(O)CC2)c1

>  <assigned-class>
upper range

$$$$
>  <compound>
CC(C)c1cc(Cl)cc(Cl)c1C(=O)c1ccc(F)c(CC(=O)NCC(C)(C)O)c1

>  <assigned-class>
middle range

$$$$
>  <compound>
CC(C)c1cc(Cl)cc(Cl)c1C(=O)c1ccc(F)c(CC(=O)NCC2(O)CCC2)c1

>  <assigned-class>
middle range

$$$$
>  <compound>
O=C(Cc1cncc(-n2cc(Cl)c3cc(Cl)cc(Cl)c32)c1)NCCO

>  <assigned-class>
lower range

$$$$

---

# assay-system: hERG (Homo sapiens (Human), UniProt Q12809)
# Sequence (Q12809 whole entry): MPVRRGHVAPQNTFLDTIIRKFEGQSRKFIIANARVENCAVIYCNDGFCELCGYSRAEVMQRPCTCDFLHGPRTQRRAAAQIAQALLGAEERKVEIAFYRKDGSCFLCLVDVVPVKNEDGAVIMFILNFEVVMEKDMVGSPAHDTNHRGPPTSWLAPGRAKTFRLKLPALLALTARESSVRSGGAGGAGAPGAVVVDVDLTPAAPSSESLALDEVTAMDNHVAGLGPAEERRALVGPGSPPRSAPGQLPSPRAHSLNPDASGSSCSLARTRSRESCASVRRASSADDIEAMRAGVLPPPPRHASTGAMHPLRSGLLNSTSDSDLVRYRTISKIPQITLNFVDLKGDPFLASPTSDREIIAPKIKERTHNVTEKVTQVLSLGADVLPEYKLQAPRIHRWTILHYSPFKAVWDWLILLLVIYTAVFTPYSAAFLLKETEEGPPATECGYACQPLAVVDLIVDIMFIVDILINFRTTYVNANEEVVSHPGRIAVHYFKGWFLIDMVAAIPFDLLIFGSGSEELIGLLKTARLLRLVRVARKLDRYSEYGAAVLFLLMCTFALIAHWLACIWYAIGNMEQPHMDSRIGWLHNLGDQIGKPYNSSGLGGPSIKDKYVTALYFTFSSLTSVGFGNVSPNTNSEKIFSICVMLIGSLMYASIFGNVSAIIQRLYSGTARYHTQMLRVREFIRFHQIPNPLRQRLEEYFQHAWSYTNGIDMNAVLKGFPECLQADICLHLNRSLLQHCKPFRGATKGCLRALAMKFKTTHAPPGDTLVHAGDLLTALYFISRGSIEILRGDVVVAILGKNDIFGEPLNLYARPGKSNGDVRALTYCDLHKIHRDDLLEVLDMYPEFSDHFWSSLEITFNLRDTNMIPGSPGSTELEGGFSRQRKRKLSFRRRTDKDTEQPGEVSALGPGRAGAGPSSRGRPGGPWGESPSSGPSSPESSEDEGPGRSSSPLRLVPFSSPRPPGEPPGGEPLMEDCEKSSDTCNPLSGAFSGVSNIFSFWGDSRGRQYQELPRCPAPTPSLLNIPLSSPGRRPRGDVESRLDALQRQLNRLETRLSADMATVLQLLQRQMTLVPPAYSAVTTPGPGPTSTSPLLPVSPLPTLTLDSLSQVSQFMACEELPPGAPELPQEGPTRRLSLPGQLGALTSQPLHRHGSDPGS
# procedure-details: in vitro
# condition: hamster, CHO cells that express human hERG
measured-property: inhibition at 1.5 h, 50 µM

>  <compound>
CC(C)c1cc(Cl)cc(Cl)c1C(O)c1ccc(F)c(CC(=O)NCC2(O)CCC2)c1 (racemic)

>  <measured-property>
inhibition at 1.5 h, 50 µM

>  <endpoint-result>
0%

$$$$
